- target: Histidine--tRNA ligase (Leishmania infantum) (UniProt A4I591)
- Sequence (whole entry): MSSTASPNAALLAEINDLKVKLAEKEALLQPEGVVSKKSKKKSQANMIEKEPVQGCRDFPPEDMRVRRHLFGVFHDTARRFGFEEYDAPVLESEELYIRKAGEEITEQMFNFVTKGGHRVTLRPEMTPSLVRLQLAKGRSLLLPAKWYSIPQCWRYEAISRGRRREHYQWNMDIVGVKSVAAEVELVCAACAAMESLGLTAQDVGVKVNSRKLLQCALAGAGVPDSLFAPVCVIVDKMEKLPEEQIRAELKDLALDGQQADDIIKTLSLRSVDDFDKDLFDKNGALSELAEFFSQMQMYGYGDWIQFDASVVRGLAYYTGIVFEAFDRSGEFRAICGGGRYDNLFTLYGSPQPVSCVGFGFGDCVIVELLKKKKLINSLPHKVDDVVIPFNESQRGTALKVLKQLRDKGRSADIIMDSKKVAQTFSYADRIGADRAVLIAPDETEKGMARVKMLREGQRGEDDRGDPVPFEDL
- experiment-notes: Leishmania infantum Histidine tRNA synthetase (LdHisRS)
- Type: functional
- Set-up: scale not given: in the data most compounds retested in dose-response had high values
- condition-notes: 30 µM
Hit rate of the full screen: of about 69,000 compounds, about 420 (0.61%) showed an effect of 50% or more. Only a selection was taken, and strong results are over-represented in it overall.
Categorize each record by its Percent Effect using class 1: < 10%; class 2: ≥ 10% and < 20%; class 3: ≥ 20%

>  <molecule>
c1cc(CN2CCCCC2)cc(NCc2cc[nH]n2)c1

>  <category>
class 2

$$$$
>  <molecule>
CN1CCN(Cc2cccc(NCc3cc[nH]n3)c2)CC1

>  <category>
class 2

$$$$
>  <molecule>
Cc1cc(C)c(CNC(=O)N2CCCC2c2ccccn2)c(=O)[nH]1 (configuration not stated)

>  <category>
class 2

$$$$
>  <molecule>
Cc1cc(CN2CC[C@H]3OCC[C@@]3(C(=O)NCc3ccco3)C2)no1

>  <category>
class 2

$$$$
>  <molecule>
CCCn1cc(Cl)c(C(=O)N2C[C@H]3C[C@H](OC)C[C@H]3C2)n1

>  <category>
class 1

$$$$
>  <molecule>
COc1ccc(NC(=O)N2CCCC2c2ccncc2)cn1 (configuration not stated)

>  <category>
class 2

$$$$
>  <molecule>
N#Cc1ccc(OC[C@]23COC[C@H]2CN(c2ncccn2)C3)nc1

>  <category>
class 1

$$$$
>  <molecule>
O=C(C1CCCCC1)N1C[C@@H]2CCN(c3cnccn3)C[C@@H]2C1

>  <category>
class 3

$$$$
>  <molecule>
CS(=O)(=O)N[C@@H]1CN(C(=O)c2cccnc2)[C@@H]2CCCO[C@@H]21

>  <category>
class 1

$$$$
>  <molecule>
Cn1cc(C(=O)N2CCCC2c2ccc3c(c2)OCCO3)ccc1=O (configuration not stated)

>  <category>
class 3

$$$$
>  <molecule>
O=C(c1cnccn1)N1CCN2C[C@H](OCc3ccccc3F)C[C@H]2C1

>  <category>
class 1

$$$$
>  <molecule>
N#Cc1ccc(C(=O)N2C[C@H](OCc3cccnc3)[C@H]3COC[C@H]32)cc1

>  <category>
class 1

$$$$
>  <molecule>
Cc1ccc(OCc2occc2C(=O)N2C[C@@H]3[C@@H](CN(C)C)[C@@H]3C2)cc1

>  <category>
class 2

$$$$
>  <molecule>
O=C(c1cccnc1-c1ccoc1)N1C[C@H]2CC[C@@H]1C2

>  <category>
class 1

$$$$
>  <molecule>
CN(CCCOc1ccccc1Cl)C(=O)CN1CCNC1=O

>  <category>
class 3

$$$$
>  <molecule>
CS(=O)(=O)c1ccc(CN2C[C@H]3CC[C@@H]2CN(c2ncccn2)C3)cc1

>  <category>
class 2

$$$$
>  <molecule>
COCc1nc2cc(NCc3ccncc3)ccc2o1

>  <category>
class 3

$$$$
>  <molecule>
O=C(O)[C@]12CCCN(Cc3ccsc3)C[C@H]1CN(c1ncccn1)C2

>  <category>
class 2

$$$$
>  <molecule>
CNC(=O)[C@H]1CC[C@@H]2[C@@H](CCN2c2ncccn2)O1

>  <category>
class 2

$$$$
>  <molecule>
CC(C)CN1C(=O)CO[C@@H]2CN(C(=O)N(C)C)C[C@H]21

>  <category>
class 1

$$$$
>  <molecule>
CN(C)[C@H]1COC[C@@H]2CN(Cc3ccc4c(c3)OCO4)C[C@@H]21

>  <category>
class 2

$$$$

###

- target: Histidine--tRNA ligase (Leishmania infantum) (UniProt A4I591)
- Sequence (whole entry): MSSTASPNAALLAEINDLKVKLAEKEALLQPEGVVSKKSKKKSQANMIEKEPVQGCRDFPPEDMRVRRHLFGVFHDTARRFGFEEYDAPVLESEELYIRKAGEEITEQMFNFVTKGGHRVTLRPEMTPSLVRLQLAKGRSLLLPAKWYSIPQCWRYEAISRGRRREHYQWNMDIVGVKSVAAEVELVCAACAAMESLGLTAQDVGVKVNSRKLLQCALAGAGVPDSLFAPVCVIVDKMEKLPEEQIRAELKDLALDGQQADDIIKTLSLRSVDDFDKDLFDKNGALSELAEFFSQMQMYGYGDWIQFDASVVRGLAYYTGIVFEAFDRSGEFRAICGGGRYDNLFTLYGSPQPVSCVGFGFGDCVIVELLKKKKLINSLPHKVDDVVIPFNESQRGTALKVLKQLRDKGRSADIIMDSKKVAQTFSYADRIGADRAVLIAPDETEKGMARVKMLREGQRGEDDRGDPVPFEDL
- experiment-notes: Leishmania infantum Histidine tRNA synthetase (LdHisRS)
- Type: functional
- Parameters: scale not given: in the data most compounds retested in dose-response had high values
- condition-notes: 30 µM
The whole screen tested about 69,000 compounds, of which about 420 (0.61%) showed an effect of 50% or more. The list comes from a sample in which strong results are over-represented; it also holds close analogues and randomly drawn compounds.
Response field label takes condition met when Percent Effect is strictly below 20% and condition not met in all other cases.

>  <compound>
Brc1cccc(C2(CNCc3cc[nH]c3)CCOCC2)c1

>  <category>
condition not met

$$$$
>  <compound>
Cn1nc2c(cc1=O)CN(Cc1nnc(C3CC3)o1)CC2

>  <category>
condition not met

$$$$
>  <compound>
COc1ccc(F)c(CN2CC(=O)N(c3ccccc3C)CC2C)c1 (centres undefined)

>  <category>
condition not met

$$$$
>  <compound>
COCCC(=O)N1C[C@H]2CCC[C@@]2(COC)C1

>  <category>
condition met

$$$$
>  <compound>
CCn1nc2c(cc1=O)CN(Cc1nc(CCOC)no1)CC2

>  <category>
condition not met

$$$$
>  <compound>
O=C(c1ccncc1)N1C[C@@H]2CC[C@H](C1)N(C(=O)N1CCOCC1)C2

>  <category>
condition met

$$$$
>  <compound>
O=c1c2cnc(N3CCOCC3)nc2ccn1-c1ccccc1

>  <category>
condition not met

$$$$
>  <compound>
CC(=O)Cc1c(C)nn(-c2cncc(N)c2)c1C

>  <category>
condition not met

$$$$
>  <compound>
N#Cc1ccc(CNCC2(c3ccccc3)CCOCC2)cc1

>  <category>
condition not met

$$$$
>  <compound>
CN(C)S(=O)(=O)N1CC[C@]2(O)CCN(CCc3cccc(F)c3)C[C@@H]2C1

>  <category>
condition not met

$$$$
>  <compound>
Cc1nc(CO[C@H]2CN(C(=O)c3cccn3C)[C@@H]3COC[C@H]23)cs1

>  <category>
condition met

$$$$
>  <compound>
COc1cccc(-c2n[nH]c3c2CN(C(=O)c2cc(C)n(C)n2)CC3)c1

>  <category>
condition met

$$$$
>  <compound>
CC(C)CC(=O)N1CC[C@@H]2[C@H](CC1)N(S(C)(=O)=O)CCS2(=O)=O

>  <category>
condition met

$$$$
>  <compound>
COc1ccccc1C1(CNc2nnc(C)c(C)c2C#N)CCOCC1

>  <category>
condition not met

$$$$
>  <compound>
Cn1nc2c(cc1=O)CN(Cc1nc(C(C)(C)C)no1)CC2

>  <category>
condition not met

$$$$
>  <compound>
c1coc(CN2CCO[C@H]3[C@@H](OCC4CC4)CC[C@@H]32)c1

>  <category>
condition met

$$$$
>  <compound>
Cn1ccnc1CN1C(=O)CO[C@H]2CN(CCCc3ccccc3)C[C@H]21

>  <category>
condition met

$$$$
>  <compound>
COc1ccccc1N1CCC(NCc2c(C)noc2C)C1 (centres undefined)

>  <category>
condition met

$$$$
>  <compound>
CO[C@@H]1CC[C@H]2[C@H]1OCCN2C(=O)c1ccc(C)nc1

>  <category>
condition met

$$$$
>  <compound>
CCCN1C[C@H]2CC[C@@H]1CN(Cc1ccc(-n3cccn3)cc1)C2

>  <category>
condition not met

$$$$
>  <compound>
COc1ccccc1C1(CNCc2ccc([S+](C)[O-])cc2)CC1 (centres undefined)

>  <category>
condition met

$$$$
>  <compound>
Cc1ccc(CN2Cc3ccccc3O[C@]3(CC[C@H](CO)CC3)C2)s1

>  <category>
condition met

$$$$
>  <compound>
Cc1noc(C)c1CN1C[C@@H]2CC[C@H](C1)N(Cc1cc(F)cc(F)c1)C2

>  <category>
condition not met

$$$$
>  <compound>
Cc1ccc(CN2C[C@@H]3CN(CC4CCOCC4)CCO[C@@H]3C2)s1

>  <category>
condition met

$$$$
>  <compound>
Cc1ccc(NS(=O)(=O)c2cnn(-c3ccccc3)c2)c(C(=O)O)c1

>  <category>
condition not met

$$$$
>  <compound>
COc1cccc(-c2n[nH]c3c2CN(C(=O)c2cccc(=O)[nH]2)CC3)c1

>  <category>
condition not met

$$$$
>  <compound>
COc1ncccc1CN1C[C@@H]2COC[C@]2(COc2ccccn2)C1

>  <category>
condition met

$$$$
>  <compound>
CCc1ccc(C(=O)NCCNc2ncccn2)cc1

>  <category>
condition met

$$$$
>  <compound>
COc1cccc(-c2n[nH]c3c2CN(C(=O)c2ccncc2)CC3)c1

>  <category>
condition met

$$$$
>  <compound>
COCC(=O)N1C[C@H]2CNC[C@@]2(C(=O)NCc2cc(C)n[nH]2)C1

>  <category>
condition met

$$$$
>  <compound>
CC(=O)Cc1c(C)nn(-c2cncc(C(N)=O)c2)c1C

>  <category>
condition met

$$$$
>  <compound>
CCn1nc(C)c(CN(CCOC)C(=O)c2ccccc2N(C)C)c1C

>  <category>
condition not met

$$$$
>  <compound>
O=c1c2cnc(N3CCCC3)nc2ccn1-c1cccc(F)c1

>  <category>
condition met

$$$$
>  <compound>
CSc1ccccc1CN1C[C@@H]2CC[C@H](C1)N(CC1CC1)C2=O

>  <category>
condition not met

$$$$
>  <compound>
COCCN1CC[C@@H]2O[C@@H](COCC(=O)N3CCCC3)CC[C@@H]21

>  <category>
condition met

$$$$
>  <compound>
CNC(=O)[C@H]1CO[C@H]2CCN(Cc3ccc4ccccc4n3)C[C@H]2C1

>  <category>
condition met

$$$$
>  <compound>
O=C(N[C@@H]1CN(c2ncccn2)C[C@@H]2CCCO[C@@H]21)c1ccnnc1

>  <category>
condition not met

$$$$
>  <compound>
COc1ccc(F)c(F)c1CN1CC(=O)N(c2ccccc2C)CC1C (centres undefined)

>  <category>
condition not met

$$$$
>  <compound>
CN(Cc1cccnc1)c1nccc(N2CCN[C@H]3CS(=O)(=O)C[C@H]32)n1

>  <category>
condition met

$$$$
>  <compound>
O=C(C[C@@H]1COC[C@H]2CN(Cc3ccccc3)C[C@@H]12)N1CCCC1

>  <category>
condition not met

$$$$
>  <compound>
COc1cccc(CN2CC(=O)N(c3ccccc3C)CC2C)c1OC (centres undefined)

>  <category>
condition not met

$$$$
>  <compound>
CN(C)CCCN(C)c1nccc(N2CCN[C@H]3CS(=O)(=O)C[C@H]32)n1

>  <category>
condition met

$$$$
>  <compound>
CCCN1C[C@H]2CC[C@@H]1CN(Cc1cccc(O)c1)C2

>  <category>
condition not met

$$$$
